Tested on: tyrosinase
Procedure summary: Tyrosinase activity test with substrate L-tyrosine
Experimental setup: tyrosinase 10 units, L-tyrosine 4 mM, 37° C., 1 hour, OD 450 nm
pIC50: −log10 of the molar value.

[
  {
    "Molecule": "O=C1O[C@H]([C@@H](O)COC(=O)c2cc(O)c(O)c(O)c2)C(O)=C1O [ASG I, L-ascorbyl 6-gallate]",
    "pIC50": 3.96
  },
  {
    "Molecule": "O=C1O[C@H]([C@@H](O)CO)C([O-])=C1OP(=O)([O-])[O-].O=C1O[C@H]([C@@H](O)CO)C([O-])=C1OP(=O)([O-])[O-].[Mg+2].[Mg+2].[Mg+2] [MAP, magnesium ascorbyl phosphate, reference compound]",
    "pIC50": 1.48
  }
]

###

Procedure summary: DPPH assay (free-radical scavenging)
Assay type: biochemical
Experimental setup: amount of antioxidant (in mg) needed to inhibit 1 mmol of DPPH
Protocol: In the presence of a free-radical scavenger, the electron is paired, the absorption disappears, and the decoloration proceeds stoichiometrically taking into account the electrons taken up. The absorbance is measured in a photometer, The anti-free-radical property of the substance to be tested is determined by measuring the concentration at which 50% of the 2,2-diphenyl-1-picrylhydrazyl employed has reacted with the free-radical scavenger. […]

[
  {
    "Molecule": "O=C1O[C@H]([C@@H](O)COC(=O)c2cc(O)c(O)c(O)c2)C(O)=C1O [ASG I, L-ascorbyl 6-gallate]",
    "DPPH free-radical scavenging / mg": 54
  },
  {
    "Molecule": "O=C1O[C@H]([C@@H](O)COC(=O)c2ccc(O)cc2)C(O)=C1O [Substance 4, L-ascorbyl 6-O-(4-hydroxy)benzoate]",
    "DPPH free-radical scavenging / mg": 185
  },
  {
    "Molecule": "O=C1O[C@H]([C@@H](O)COC(=O)c2ccc(O)c(O)c2)C(O)=C1O [Substance 3, L-ascorbyl 6-O-(3,4-dihydroxy)benzoate]",
    "DPPH free-radical scavenging / mg": 56
  },
  {
    "Molecule": "COc1cc(C(=O)OC[C@H](O)[C@H]2OC(=O)C(O)=C2O)cc(OC)c1O",
    "DPPH free-radical scavenging / mg": 185
  }
]

###

Measured AE (×10^−3), listed per entry.
Procedure summary: DPPH assay (free-radical scavenging)
Format: biochemical
Experimental setup: anti-free-radical efficiency from EC50 and TEC50

[
  {
    "Molecule": "O=C1O[C@H]([C@@H](O)CO)C(O)=C1O [Vitamin C, ascorbic acid, reference compound]",
    "AE (×10^−3)": "61.72 ×10^−3"
  },
  {
    "Molecule": "O=c1c(O)c(-c2ccc(O)c(O)c2)oc2cc(O)cc(O)c12 [3,5,7,3′,4′-Pentahydroxyflavone, reference compound]",
    "AE (×10^−3)": "83 ×10^−3"
  },
  {
    "Molecule": "O=C1O[C@H]([C@@H](O)COC(=O)c2cc(O)c(O)c(O)c2)C(O)=C1O [ASG I, L-ascorbyl 6-gallate]",
    "AE (×10^−3)": "69.4 ×10^−3"
  },
  {
    "Molecule": "Cc1c(C)c2c(c(C)c1O)CCC(C)(CCCC(C)CCCC(C)CCCC(C)C)O2 (stereo not shown) [Tocopherol, reference compound]",
    "AE (×10^−3)": "64.1 ×10^−3"
  }
]

Reference for the values: patent US20060039937A1
